Listing of entries alongside the reported pIC50.
tested_target: hTLR9 (Homo sapiens, UniProt Q9NR96)
Construct: expressed in transfected cells
Sequence (Q9NR96 26-1032): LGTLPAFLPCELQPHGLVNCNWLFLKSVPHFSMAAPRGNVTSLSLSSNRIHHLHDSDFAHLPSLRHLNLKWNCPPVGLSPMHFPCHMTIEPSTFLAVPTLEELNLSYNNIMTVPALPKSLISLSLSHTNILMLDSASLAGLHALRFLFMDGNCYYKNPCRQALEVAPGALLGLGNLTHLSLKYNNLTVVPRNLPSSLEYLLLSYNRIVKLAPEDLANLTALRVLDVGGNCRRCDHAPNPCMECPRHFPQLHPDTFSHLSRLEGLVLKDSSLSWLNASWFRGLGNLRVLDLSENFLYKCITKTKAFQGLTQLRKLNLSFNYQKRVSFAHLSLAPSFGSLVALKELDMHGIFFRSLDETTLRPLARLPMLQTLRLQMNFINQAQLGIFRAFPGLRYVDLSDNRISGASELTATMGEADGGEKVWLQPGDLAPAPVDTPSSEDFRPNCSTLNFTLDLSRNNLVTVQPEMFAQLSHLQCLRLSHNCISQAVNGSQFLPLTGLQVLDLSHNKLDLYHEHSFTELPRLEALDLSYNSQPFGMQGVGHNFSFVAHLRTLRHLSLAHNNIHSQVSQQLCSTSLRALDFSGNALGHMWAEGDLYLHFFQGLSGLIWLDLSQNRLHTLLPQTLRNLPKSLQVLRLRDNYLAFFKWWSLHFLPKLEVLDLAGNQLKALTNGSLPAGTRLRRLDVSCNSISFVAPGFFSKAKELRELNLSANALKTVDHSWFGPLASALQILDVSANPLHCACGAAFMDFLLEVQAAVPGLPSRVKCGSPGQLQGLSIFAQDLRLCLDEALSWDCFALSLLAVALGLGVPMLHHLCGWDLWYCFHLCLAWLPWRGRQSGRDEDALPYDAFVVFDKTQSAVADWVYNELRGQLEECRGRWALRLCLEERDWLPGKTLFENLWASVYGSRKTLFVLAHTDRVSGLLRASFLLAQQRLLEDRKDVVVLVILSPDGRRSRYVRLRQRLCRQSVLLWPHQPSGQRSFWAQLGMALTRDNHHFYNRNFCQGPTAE
assay_comment: hTLR9 antagonism IC50, hTLR9-NFkB-293 cells, luciferase readout, CpG-ODN 2006 (Examples 8 and 18, Tables 19 and 20)
Assay type: cell-based
// pIC50 here means minus log10 of the molar concentration (mol/L)

CN1CCN(c2ccc(Cc3ccccc3)cc2)CC1 [CMZ 203-88-1]	4.92

Consider the record given below.
Fill in pIC50 for record CN1CCN(c2ccc(C(O)c3ccccc3)cc2)CC1 (centres unmarked) [CMZ 203-84] 4.59

###

Listing of entries alongside the reported antagonist dose (minimum effective dose for blockade of the TLR9 agonist).
tested_target: human TLR9 (hTLR9) (Homo sapiens)
Construct: expressed in transfected cells
Format: cell-based
settings: three-point assay at 50, 5.0 or 0.5 μM; EC50 dose of CpG-ODN 2006, 16 h

Cc1cc(C)c2c(N)c3cc(F)ccc3nc2n1	0.5 µM

Fill in antagonist dose (minimum effective dose for blockade of the TLR9 agonist) for record Nc1c2c(nc3ccccc13)CCC2 5.0 µM

Fill in antagonist dose (minimum effective dose for blockade of the TLR9 agonist) for record CN(C)c1cc(N)c2ccccc2n1 0.5 µM

Fill in antagonist dose (minimum effective dose for blockade of the TLR9 agonist) for record Nc1c2c(nc3ccccc13)CCCCC2 0.5 µM

Fill in antagonist dose (minimum effective dose for blockade of the TLR9 agonist) for record CCOc1ccc2nc3cc(NCc4ccco4)ccc3c(N)c2c1 5.0 µM

Fill in antagonist dose (minimum effective dose for blockade of the TLR9 agonist) for record CC1(C)C=Cc2c(nc3ccccc3c2N)C1 0.5 µM

Fill in antagonist dose (minimum effective dose for blockade of the TLR9 agonist) for record CC1(C)Cc2nc3ccccc3c(N)c2C(O)C1 (centres unmarked) 5.0 µM

Fill in antagonist dose (minimum effective dose for blockade of the TLR9 agonist) for record Cc1cc(C)c2c(N)c3cccc(C)c3nc2n1 5.0 µM

Fill in antagonist dose (minimum effective dose for blockade of the TLR9 agonist) for record Cc1ccc2nc3nc4c(C)cccc4c(N)c3cc2c1 0.5 µM

Fill in antagonist dose (minimum effective dose for blockade of the TLR9 agonist) for record Cc1cc(C)c2c(N)c3ccccc3nc2n1 0.5 µM

Fill in antagonist dose (minimum effective dose for blockade of the TLR9 agonist) for record Cc1ccc2nc3c(c(N)c2c1)CCN3c1ccccc1 0.5 µM

###

tested_target: hTLR9 (Homo sapiens, UniProt Q9NR96)
Construct: expressed in transfected cells
assay_comment: hTLR9 antagonism IC50, hTLR9-NFkB-293 cells, luciferase readout, CpG-ODN 2006 (Examples 8 and 18, Tables 19 and 20)
Type: cell-based
settings: hTLR9-NFkB-293 cells, EC50 dose of CpG-ODN 2006, 16 h; Table 19 quinazolines; read-out: hTLR9 (IC50 dose for blockade of a CpG ODN-generated signal)
Please note: IC50 exactly at 20 nM is 0.0. Only values below 20 nM get 1.0.

Recorded results for 7 molecules are shown here.
COc1cc2nc(N3CCN(c4ccccc4)CC3)nc(NCCN(C)C)c2cc1OC	1.0
CN(C)CCOc1nc(-c2ccccc2)nc2ccccc12	0.0
COc1cc2nc(N3CCN(C)CC3)nc(NCCN(C)C)c2cc1OC	1.0
CN(C)CCNC1NC(c2ccc(N3CCN(C)CC3)cc2)=Nc2ccccc21 (stereo not drawn)	1.0
CN(C)CCNc1nc(-c2ccccc2)nc2ccccc12	0.0
CN(C)CCNc1nc(-c2ccc(-c3ccccc3)cc2)nc2ccccc12	0.0
CN(C)CCOc1nc(-c2ccc(N3CCN(C)CC3)cc2)nc2ccccc12	0.0

Shifting focus to the molecule that follows.
# check: IC50 < 20 nM for COc1cc2nc(N3CCN(c4ccccc4)CC3)nc(N)c2cc1OC 0.0
